# SYSTEM UNDER TEST: His-hMAGL (recombinant polyhistidine tagged human MAGL protein) (Homo sapiens, UniProt Q99685)
# Construct: made in house; host or cells: E. coli BL21(DE3)
# Sequence (Q99685 whole entry): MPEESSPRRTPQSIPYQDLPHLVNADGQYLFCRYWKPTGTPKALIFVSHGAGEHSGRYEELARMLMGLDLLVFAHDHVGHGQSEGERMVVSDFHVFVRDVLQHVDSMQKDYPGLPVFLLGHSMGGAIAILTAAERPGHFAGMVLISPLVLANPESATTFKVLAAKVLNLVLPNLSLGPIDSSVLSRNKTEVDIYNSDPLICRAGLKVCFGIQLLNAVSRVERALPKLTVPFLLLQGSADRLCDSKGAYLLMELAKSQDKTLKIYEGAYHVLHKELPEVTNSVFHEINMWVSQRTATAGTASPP
# ASSAY NAME: Measurement of MAGL inhibitory activity (arachidonic acid production from 2-arachidonylglycerol, RapidFire-mass spectrometry)
# Assay type: biochemical
# RUN PARAMETERS: MAGL inhibitory rate, test compound 10 μM, 60 min preincubation, 2-arachidonylglycerol substrate
RECORDED METRIC: inhibition at 10 µM (%)

O=C1CCC2(CN(C(=O)c3ccc(-c4ccc(F)c(C(F)(F)F)c4)cc3)C2)N1 = 98
O=C1NC2(CO1)CN(C(=O)c1sc3cc(OC(F)(F)F)c(Cl)cc3c1Cl)C2 = 100
Cc1c(OC(F)(F)F)ccc2c(Cl)c(C(=O)N3CCC4(COC(=O)N4)C3)sc12 (centres unmarked) = 100
Cn1c(-c2ccc(C(=O)N3CC4(CCC(=O)N4)C3)cc2)cc2ccccc21 = 94
Cc1ccc(-c2ccc3c(Cl)c(C(=O)N4CC5(CCC(=O)N5)C4)sc3c2)s1 = 99
O=C1CCC2(CN(C(=O)c3sc4cc(-c5ccc(F)c(F)c5)ccc4c3Cl)C2)N1 = 100
O=C1CCC2(CN(C(=O)c3cc4ccc(-c5ccc(Cl)cc5)cc4o3)C2)N1 = 80
O=C1NC2(CCN(C(=O)c3sc4cc(C(F)(F)F)cc(F)c4c3Cl)C2)CO1 (centres unmarked) = 100
